All values here come from patent USRE41226E1.

- Tested on: 24 hours-starved rats
- Test method notes: Glucose and β-hydroxybutyrate in serum of fasted rats treated with CPT inhibitors
- Format: in vivo, Fischer rats
- Test context: one hour after intraperitoneal treatment, ST1326 14.5 mg/2 ml/kg, others equivalent dose
# binarize β-OHB serum concentration, Mean: threshold 100 inclusive, high side satisfied, low side not satisfied

[[record]]
compound = "CCCCCCCCOC(=O)NC(CC(=O)O)C[N+](C)(C)C.[Cl-] (stereo not drawn) [ST1253]"
answer_label = "satisfied"

[[record]]
compound = "CCCCCCCCCCCCCCOP(=O)([O-])O[C@H](CC(=O)O)C[N+](C)(C)C [SDZ-CPI-975, reference compound]"
answer_label = "satisfied"

[[record]]
compound = "CCCCCCCNC(=O)N[C@H](CC(=O)[O-])C[N+](C)(C)C [ST1328]"
answer_label = "satisfied"

[[record]]
compound = "CCCCCCCCCCCNC(=O)N[C@H](CC(=O)[O-])C[N+](C)(C)C [ST1327]"
answer_label = "not satisfied"

[[record]]
compound = "CCCCCCCCCCCCCCNC(=O)N[C@H](CC(=O)[O-])C[N+](C)(C)C [ST1326]"
answer_label = "satisfied"

